The origin of these recorded values is patent US20260015434A1.

tested on: PNAG conjugates on the array (dPNAG, PNAG and intermediate levels of deacetylation); test: Neoglycoprotein (glycan) microarray binding, 816-component array; details: ability to bind both dPNAG and PNAG and intermediate levels of deacetylation
value kind: PNAG Binding on Array

molecule	recorded value
729 × TG: 15729 HC (SEQ ID NO: 44) with TG10 LC (SEQ ID NO: 12) (antibody, V domains shown, Based on an antibody sequence.; TG10 Light Chain Variable Region) VH: EVQLVESGGGLVQPGGSLRLSCAASGFTFSSYWMSWVRQAPGKGLEWVANIKQDGSEKYYVDSVKGRFTISRDNAKNSLYLQMNSLRAEDTAVYYCARDPDGRIFDYWGQGTLVTVSS VL: EIVLTQSPGTLSLSPGDRATHSCRASQSVSRSYLAWYQQKPGQTPRLFIYGASNRATGIPDRFSGSGSGTYFTLTISRLEPEDFAVYYCQQYDSAPDTFGQGTRLEIK	No
